Test: Bioavailability studies (pharmacokinetics after oral and intraarterial administration)
Assay type: in vivo, rat
Settings: male, Wistar (Crl:WI), rat, plasma, po, 3 mg/kg; calculated from Mean AUC p.o. / Mean AUC i.a.; read-out: F (bioavailability)
Exercise: state measured bioavailability for each of the compounds provided.

For orientation, consider the following solved cases.
Using known records, supply bioavailability for NCc1c(-c2ccc(Cl)cc2Cl)ncn1Cc1cccnc1 [Example 121b]
53%

Using known records, supply bioavailability for NCc1c(-c2ccc(Cl)cc2Cl)ncn1Cc1ccsc1 [Example 130b]
76%

// each compound listed below needs its bioavailability
1. NCc1c(-c2ccc(Cl)cc2Cl)ncn1Cc1ccccc1 [Example 24b]
2. NCc1c(-c2ccc(Cl)cc2Cl)ncn1Cc1ccccn1 [Example 39b]

1: 76%; 2: 43%

---

Experiment: Bioavailability studies (pharmacokinetics after oral and intraarterial administration)
Type: in vivo, rat
Conditions: Wistar (Crl:WI), rat, plasma; male Wistar rats, intraarterial 3 mg/kg, hydrochloride salt, Mean ± SD; N = 4-6
experimental.readout: Cmax (µg/mL)
Numbers only, in µg/mL.

Using known records, supply Cmax for NCc1c(-c2ccc(Cl)cc2Cl)ncn1Cc1ccsc1 [Example 130b]
1.16

// each compound listed below needs its Cmax
1. NCc1c(-c2ccc(Cl)cc2Cl)ncn1Cc1cccnc1 [Example 121b]
2. NCc1c(-c2ccc(Cl)cc2Cl)ncn1Cc1ccccc1 [Example 24b]
3. NCc1c(-c2ccc(Cl)cc2Cl)ncn1Cc1ccccn1 [Example 39b]

[0.4, 0.44, 0.28]

---

Exercise: state measured pIC50 for each of the molecules provided.
Molecular target: DP IV (Homo sapiens)
Test: DP IV inhibition IC50, parallel-synthesis compounds tested directly following synthesis (without purification)
Assay type: biochemical
Set-up: IC50 DP4; other: tested directly following parallel synthesis, without purification; compounds of formula (Ib) from parallel synthesis, tested directly following synthesis
Conditions: DP IV inhibition; compounds of formula (Ib) from parallel synthesis, tested directly following synthesis (without purification); read-out: IC50
Answers are plain numbers, as −log10 of the molar value.

For orientation, consider the following solved cases.
Using known records, supply pIC50 for CC(C)N(CCn1cnc(-c2ccc(Cl)cc2Cl)c1CN)C(C)C [6b]
4.96

Using known records, supply pIC50 for Cc1ccccc1Cn1cnc(-c2ccc(Cl)cc2Cl)c1CN [Example 33b]
5.34

Using known records, supply pIC50 for NCc1c(-c2ccc(Cl)cc2Cl)ncn1CCc1ccc(F)cc1 [55b]
5.43

// each molecule listed below needs its pIC50
1. NCCCc1c(-c2ccc(Cl)cc2Cl)ncn1CCc1cccc(Cl)c1 [107b]
2. NCc1c(-c2ccc(Cl)cc2Cl)ncn1Cc1ccccc1C(F)(F)F [108b]
3. CC(O)Cn1cnc(-c2ccc(Cl)cc2Cl)c1CN (stereo not drawn) [72b]
4. NCc1c(-c2ccc(Cl)cc2Cl)ncn1CCCCCCO [16b]
5. NCc1c(-c2ccc(Cl)cc2Cl)ncn1Cc1cc(F)cc(C(F)(F)F)c1 [3b]
6. NCc1c(-c2ccc(Cl)cc2Cl)ncn1Cc1cc(F)ccc1F [119b]
7. NCc1c(-c2ccc(Cl)cc2Cl)ncn1CCc1ccccn1 [85b]
8. NCc1c(-c2ccc(Cl)cc2Cl)ncn1Cc1ccccc1 [Example 24b]

[4.37, 5.26, 4.68, 4.90, 5.55, 5.55, 4.61, 6.05]

// each molecule listed below needs its pIC50
1. NCc1c(-c2ccc(Cl)cc2Cl)ncn1CCc1c[nH]c2ccccc12 [Example 1b]
2. NCc1c(-c2ccc(Cl)cc2Cl)ncn1Cc1ccc(Cl)cc1Cl [93b]

1: 5.43; 2: 4.45

// each molecule listed below needs its pIC50
1. NCc1c(-c2ccc(Cl)cc2Cl)ncn1CCc1ccccc1Cl [Example 21b]
2. C[C@H](N)c1c(-c2ccc(Cl)cc2Cl)ncn1CCNc1ccc([N+](=O)[O-])cn1 [111b]
3. C[C@H](N)c1c(-c2ccc(Cl)cc2Cl)ncn1CCc1c[nH]c2cc(F)ccc12 [110b]
4. CC(N)c1c(-c2ccc(Cl)cc2Cl)ncn1CCCCCCO (stereo not drawn) [34b]
5. NCc1c(-c2ccc(Cl)cc2Cl)ncn1CCc1ccc(Cl)cc1Cl [Example 32b]
6. Cc1ccc(Cn2cnc(-c3ccc(Cl)cc3Cl)c2C(C)N)cc1 (stereo not drawn) [116b]

1: 5.72; 2: 4.66; 3: 4.37; 4: 4.41; 5: 4.81; 6: 4.63

// each molecule listed below needs its pIC50
1. NCc1c(-c2ccc(Cl)cc2Cl)ncn1CCCN1CCCC1=O [29b]
2. NCc1c(-c2ccc(Cl)cc2Cl)ncn1CCCc1ccccc1 [91b]

1: 4.65; 2: 4.90

---

Assay: Caco-2 transport assay
Type: in vitro ADME, human
Conditions: human, Caco-2; apical to basal, pH 7.5
experimental.readout: Papp A→B
Write your answer as a measured quantity: the number, then the unit.

For orientation, consider the following solved cases.
Using known records, supply Papp A→B for NCc1c(-c2ccc(Cl)cc2Cl)ncn1Cc1ccccc1F [Example 112b]
44.8 ×10⁻⁶ cm/s

Using known records, supply Papp A→B for NCc1c(-c2ccc(Cl)cc2Cl)ncn1Cc1ccccn1 [Example 39b]
40.6 ×10⁻⁶ cm/s

Using known records, supply Papp A→B for NCc1c(-c2ccc(Cl)cc2Cl)ncn1Cc1ccsc1 [Example 130b]
40 ×10⁻⁶ cm/s

// each molecule listed below needs its Papp A→B
1. CCOc1ccccc1Cn1cnc(-c2ccc(Cl)cc2Cl)c1CN [Example 128b]
2. COc1cccc(Cn2cnc(-c3ccc(Cl)cc3Cl)c2CN)c1 [Example 59b]

1. 45.1 ×10⁻⁶ cm/s
2. 49.7 ×10⁻⁶ cm/s

---

Assay: Caco-2 transport assay
Format: in vitro ADME, human
Details: human, Caco-2; apical to basal, pH 7.5
Cut-off 40 ×10⁻⁶ cm/s on Papp A→B, inclusive. At or above means Yes; below means No.

Solved cases below.
Could you verify whether the entry NCc1c(-c2ccc(Cl)cc2Cl)ncn1Cc1ccccc1Cl [Example 81b] shows Papp A→B of no less than 40 ×10⁻⁶ cm/s?
Yes

Could you verify whether the entry COc1ccccc1Cn1cnc(-c2ccc(Cl)cc2Cl)c1CN [Example 120b] shows Papp A→B of no less than 40 ×10⁻⁶ cm/s?
Yes

Could you verify whether the entry NCc1c(-c2ccc(Cl)cc2Cl)ncn1Cc1cccnc1 [Example 121b] shows Papp A→B of no less than 40 ×10⁻⁶ cm/s?
No

Could you verify whether the entry NCc1c(-c2ccc(Cl)cc2Cl)ncn1C(CO)c1ccccc1 (centres unmarked) [Example 126b] shows Papp A→B of no less than 40 ×10⁻⁶ cm/s?
No

Consider the record given below.
Could you verify whether the entry NCc1c(-c2ccc(Cl)cc2Cl)ncn1Cc1ccccc1 [Example 24b] shows Papp A→B of no less than 40 ×10⁻⁶ cm/s?
No

---

Assay: Bioavailability studies (pharmacokinetics after oral and intraarterial administration)
Format: in vivo, rat
Conditions: male, Wistar (Crl:WI), rat, plasma, po, 3 mg/kg, male Wistar rats, oral 3 mg/kg, hydrochloride salt, Mean ± SD; N = 5; read-out: Half-life (converted)
experimental.readout: half-life (min)
Answers are plain numbers, in min.

For orientation, consider the following solved cases.
Using known records, supply half-life for NCc1c(-c2ccc(Cl)cc2Cl)ncn1Cc1ccccn1 [Example 39b]
191

Using known records, supply half-life for NCc1c(-c2ccc(Cl)cc2Cl)ncn1Cc1cccnc1 [Example 121b]
196

Using known records, supply half-life for NCc1c(-c2ccc(Cl)cc2Cl)ncn1Cc1ccsc1 [Example 130b]
329

Then there is this molecule:
Using known records, supply half-life for NCc1c(-c2ccc(Cl)cc2Cl)ncn1Cc1ccccc1 [Example 24b]
290

---

Molecular target: DP9 (Homo sapiens)
Sequence (Q86TI2 whole entry, species assumed): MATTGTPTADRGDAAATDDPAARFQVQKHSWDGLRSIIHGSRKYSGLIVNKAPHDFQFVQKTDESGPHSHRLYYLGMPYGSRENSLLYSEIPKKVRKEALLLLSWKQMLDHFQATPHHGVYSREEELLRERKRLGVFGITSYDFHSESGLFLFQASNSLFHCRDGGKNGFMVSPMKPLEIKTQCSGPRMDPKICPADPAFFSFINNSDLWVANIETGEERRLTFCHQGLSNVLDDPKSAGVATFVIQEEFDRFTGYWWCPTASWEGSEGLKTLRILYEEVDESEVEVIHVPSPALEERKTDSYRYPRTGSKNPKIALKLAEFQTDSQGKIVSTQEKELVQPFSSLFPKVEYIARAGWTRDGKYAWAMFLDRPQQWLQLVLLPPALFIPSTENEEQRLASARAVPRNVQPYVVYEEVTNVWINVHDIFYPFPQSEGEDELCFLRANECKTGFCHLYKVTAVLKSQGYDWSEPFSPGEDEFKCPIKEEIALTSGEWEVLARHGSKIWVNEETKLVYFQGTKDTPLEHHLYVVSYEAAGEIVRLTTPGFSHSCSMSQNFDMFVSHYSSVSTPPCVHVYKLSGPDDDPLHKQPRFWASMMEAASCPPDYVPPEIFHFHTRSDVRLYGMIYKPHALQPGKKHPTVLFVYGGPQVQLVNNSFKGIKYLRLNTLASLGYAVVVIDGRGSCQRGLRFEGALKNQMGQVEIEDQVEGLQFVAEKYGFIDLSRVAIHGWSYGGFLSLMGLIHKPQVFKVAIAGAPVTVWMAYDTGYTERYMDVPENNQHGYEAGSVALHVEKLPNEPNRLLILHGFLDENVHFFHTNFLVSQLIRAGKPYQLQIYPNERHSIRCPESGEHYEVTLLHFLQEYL
Exercise: state measured Ki for each of the compounds provided.
One number for each entry, in µM.

For orientation, consider the following solved cases.
Using known records, supply Ki for NCc1c(-c2ccc(Cl)cc2Cl)ncn1Cc1ccsc1 [Example 130b]
21.5

Using known records, supply Ki for NCc1c(-c2ccc(Cl)cc2Cl)ncn1Cc1ccccc1Cl [Example 81b]
7.65

Continuing:
Using known records, supply Ki for NCc1c(-c2ccc(Cl)cc2Cl)ncn1CCc1ccccc1Cl [Example 21b]
0.925

---

Exercise: state measured Tmax for each of the compounds provided.
Assay: Bioavailability studies (pharmacokinetics after oral and intraarterial administration)
Assay type: in vivo, rat
Details: Wistar (Crl:WI), rat, plasma; male Wistar rats, oral 3 mg/kg, hydrochloride salt, Mean ± SD; N = 5
Description: Male Wistar rats (N=25; Crl:WI) with a body weight ranging between 300 and 350 g were purchased from Harlan Winkelmann GmbH (Borchen, Germany). All studycompounds were used in the form of the hydrochloride salt. […] Plasma levels of the DP IV inhibitors were determined by measurement of plasma DP IV activity under standardized conditions using Gly-Pro-pNA as substrate. […] F (in %) was calculated from the ratio of observed AUC upon oral route of administration to the AUC upon intraarterial administration.

For orientation, consider the following solved cases.
Using known records, supply Tmax for NCc1c(-c2ccc(Cl)cc2Cl)ncn1Cc1ccccn1 [Example 39b]
24 min

Using known records, supply Tmax for NCc1c(-c2ccc(Cl)cc2Cl)ncn1Cc1cccnc1 [Example 121b]
27 min

Using known records, supply Tmax for NCc1c(-c2ccc(Cl)cc2Cl)ncn1Cc1ccccc1 [Example 24b]
45 min

Then there is this compound:
Using known records, supply Tmax for NCc1c(-c2ccc(Cl)cc2Cl)ncn1Cc1ccsc1 [Example 130b]
33 min
